The values you see were collected from patent US20250353873A1.

# Lookup of reported APOE RNA (% control) Spinal Cord keyed by entry
tested on: human APOE RNA; assay: Activity in APOE C57BL/6NTac-Apoeem7250 knock-in mice, single ICV bolus, 20 weeks (Example 13); format: in vivo; settings: spinal cord; single ICV bolus 300 μg; 20 weeks post treatment; normalized to mouse Ppia
Strand notation (5' to 3'): a small letter for the sugar, then the base; units joined by * are phosphorothioate-linked, units joined directly phosphodiester-linked; [ ] holds rarer units or linkages, { } end groups; capitals alone tell only the bases. [ms] = mesyl phosphoramidate linkage; e = 2'-O-(2-methoxyethyl) (MOE); k = constrained ethyl (cEt); [5mC] = 5-methylcytosine; d = 2'-deoxy (DNA)
Respond with the figure and its unit, in that order.

1757562: mixed MOE/cEt gapmer TTGGTGAATCTTTATTAA, sugar eeeekddddddddkkeee, linkages soossssssssssooss (eT*eTeGeG*kT*dG*dA*dA*dT*d[5mC]*dT*dT*dT*kAkTeT*eA*eA) [compound 1757562] = 88 % control
1757556: mixed MOE/cEt gapmer TTGGTGAATCTTTATTAA, sugar eeeeeddddddddekkee, linkages soossssssssssooss (eT*eTeGeG*eT*dG*dA*dA*dT*d[5mC]*dT*dT*dT*eAkTkT*eA*eA) [compound 1757556] = 82 % control
1736520: 6-10-4 MOE gapmer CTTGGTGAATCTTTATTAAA, linkages sossoszzzssssssssss (e[5mC]*eTeT*eG*eGeT*dG[ms]dA[ms]dA[ms]dT*d[5mC]*dT*dT*dT*dA*dT*eT*eA*eA*eA) [compound 1736520] = 62 % control
1757573 (eA*e[5mC]eTeT*eG*eG*dT*dG[ms]dA[ms]dA[ms]dT*d[5mC]*dT*dT*dT*dA[ms]kT*eT*eA*eA; antisense) [Compound 1757573] = 42 % control
1778125: modified oligonucleotide complementary to human APOE RNA (eA*e[5mC]eTeTeGeG*dT*dG[ms]dA[ms]dA*dT*d[5mC]*dT*dT*dT*dA[ms]kTkT*eA*eA; antisense) [compound 1778125] = 49 % control

Exercise: Param item = 1736524: 6-10-4 MOE gapmer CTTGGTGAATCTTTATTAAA, linkages sssooozzssssssssoss (e[5mC]*eT*eT*eGeGeTdG[ms]dA[ms]dA*dT*d[5mC]*dT*dT*dT*dA*dT*eTeA*eA*eA) [compound 1736524] ; retrieve measured APOE RNA (% control) Spinal Cord.
Solution: 62 % control

Exercise: Can you share its APOE RNA (% control) Spinal Cord? I mean this substance: 1778114: modified oligonucleotide complementary to human APOE RNA (eA*e[5mC]eTeTkG*kG*dT*dG[ms]dA[ms]dA*dT*d[5mC]*dT*dT*dT*dA[ms]eTeT*eA*eA; antisense) [compound 1778114]
Solution: 26 % control

Exercise: // returns reported APOE RNA (% control) Spinal Cord for input 1778109: 6-10-4 MOE gapmer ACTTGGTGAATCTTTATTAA, linkages sooossszzsssssszoss (eA*e[5mC]eTeTeG*eG*dT*dG[ms]dA[ms]dA*dT*d[5mC]*dT*dT*dT*dA[ms]eTeT*eA*eA) [compound 1778109]
Solution: 34 % control

Exercise: Entry 1778123: modified oligonucleotide complementary to human APOE RNA (eA*e[5mC]eTeTeG*eG*dT*dG[ms]dA[ms]dA*dT*d[5mC]*dT*dT*dT*dA[ms]kTkT*eA*eA; antisense) [compound 1778123] has what APOE RNA (% control) Spinal Cord?
Solution: 36 % control

Exercise: Please report the recorded APOE RNA (% control) Spinal Cord for 1757585 (eT*eTeGkGkT*dG*dA*dA*dT*d[5mC]*dT*dT*dT*dA*dT*kTeAeA*eA*e[5mC]; antisense) [Compound 1757585] .
Solution: 61 % control

Exercise: Item 1785600 (k[5mC]*kT*kT*dG[ms]dG[ms]dT[ms]dG*dA*dA*dT*d[5mC]*dT[ms]dT[ms]dT[ms]dA*dT*kT*kA*dA[ms]kA; antisense) [Compound 1785600] has what recorded APOE RNA (% control) Spinal Cord?
Solution: 33 % control

Exercise: What does the record list as APOE RNA (% control) Spinal Cord for 1757567 (eA*e[5mC]eTeTeG*dG*dT*dG*dA*dA*dT*d[5mC]*dT*dT*dT*kAeTeT*eA*eA; antisense) [Compound 1757567] ?
Solution: 65 % control

Exercise: Reported APOE RNA (% control) Spinal Cord, substance 1778127: modified oligonucleotide complementary to human APOE RNA (eA*e[5mC]eTeTkGkG*dT*dG[ms]dA[ms]dA*dT*d[5mC]*dT*dT*dT*dA[ms]kTeT[ms]eA[ms]eA; antisense) [compound 1778127] : ____
Solution: 43 % control

Exercise: Which APOE RNA (% control) Spinal Cord value is on record for 1757586 (eT*eTeGeGkT*dG*dA*dA*dT*d[5mC]*dT*dT*dT*dA*dT*kTkAeA*eA*e[5mC]; antisense) [Compound 1757586] ?
Solution: 83 % control

Exercise: What does the data say about its APOE RNA (% control) Spinal Cord? Entry: 1778126 (eA*e[5mC]eTeTkG*kG*dT*dG[ms]dA[ms]dA*dT*d[5mC]*dT*dT*dT*dA[ms]kT*eT*eA*eA; antisense) [Compound 1778126]
Solution: 35 % control

Exercise: May I ask what APOE RNA (% control) Spinal Cord has been recorded for 1736523: 6-10-4 MOE gapmer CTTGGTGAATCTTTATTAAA, linkages ssoooszzssssssssoss (e[5mC]*eT*eTeGeGeT*dG[ms]dA[ms]dA*dT*d[5mC]*dT*dT*dT*dA*dT*eTeA*eA*eA) [compound 1736523] ?
Solution: 44 % control

Exercise: Entry 1785601: modified oligonucleotide complementary to human APOE RNA (k[5mC]*kT*kT*dG[ms]dG[ms]dT[ms]dG*dA[ms]dA[ms]dT*d[5mC]*dT*dT*dT*dA[ms]dT*kT*kA*dA[ms]kA; antisense) [compound 1785601] has what APOE RNA (% control) Spinal Cord?
Solution: 31 % control

Exercise: // query APOE RNA (% control) Spinal Cord value for entry 1757582 (eT*eTeGkGkT*dG*dA*dA*dT*d[5mC]*dT*dT*dT*dA*dT*eTeAeA*eA*e[5mC]; antisense) [Compound 1757582]
Solution: 44 % control
